Test system: E coli NCTC 10418
Assay: antibacterial activity (MIC)
Type: cell-based
Settings: Escherichia coli, NCTC10418; Table 2; gram negative organism E. coli NCTC 10418
Where a name gives a salt, the structure may show the parent alone.
REPORTED ENDPOINT: log10 MIC (log10 of the value in µg/mL)
Record value = log10 of MIC given in µg/mL.

Below are worked cases with known answers.
COMPOUND	MEASUREMENT TARGET	NUMBER
CC1(C)S[C@@H]2[C@H](NC(=O)[C@H](NC(=O)c3cnc(NCc4ccc(S(N)(=O)=O)cc4)nc3O)c3ccccc3)C(=O)N2[C@H]1C(=O)O [Example 7, disodium salt]	E coli NCTC 10418	1.00
CC(C)COC(=O)Nc1ncc(C(=O)N[C@@H](C(=O)N[C@@H]2C(=O)N3[C@@H]2SC(C)(C)[C@@H]3C(=O)O)c2ccccc2)c(O)n1 [Example 24, disodium salt]	E coli NCTC 10418	0.70
CCSCCNc1ncc(C(=O)N[C@@H](C(=O)N[C@@H]2C(=O)N3[C@@H]2SC(C)(C)[C@@H]3C(=O)O)c2ccc(O)cc2)c(O)n1 [Example 14, disodium salt]	E coli NCTC 10418	0.40

Given the compound COCCNc1ncc(C(=O)N[C@@H](C(=O)N[C@@H]2C(=O)N3[C@@H]2SC(C)(C)[C@@H]3C(=O)O)c2ccccc2)c(O)n1 [Example 13, disodium salt] and test system E coli NCTC 10418, the measured log10 MIC is 0.70

Note to self: log10 MIC of CC1(C)S[C@@H]2[C@H](NC(=O)[C@H](NC(=O)c3cnc(NC(=O)OCc4ccccc4)nc3O)c3ccccc3)C(=O)N2[C@H]1C(=O)O [Example 25, disodium salt] with E coli NCTC 10418 was 0.40

Readout log10 MIC for CCCC(=O)Nc1ncc(C(=O)N[C@@H](C(=O)N[C@@H]2C(=O)N3[C@@H]2SC(C)(C)[C@@H]3C(=O)O)c2ccccc2)c(O)n1 [Example 22, disodium salt] , test system E coli NCTC 10418, was 0.70

The observed log10 MIC for CC1(C)S[C@@H]2[C@H](NC(=O)[C@H](NC(=O)c3cnc(NCc4ccco4)nc3O)c3ccccc3)C(=O)N2[C@H]1C(=O)O [Example 10, disodium salt] when tested with E coli NCTC 10418 stands at 0.70

The observed log10 MIC for COc1ccc(CNc2ncc(C(=O)N[C@@H](C(=O)N[C@@H]3C(=O)N4[C@@H]3SC(C)(C)[C@@H]4C(=O)O)c3ccccc3)c(O)n2)cc1 [Example 9, disodium salt] when tested with E coli NCTC 10418 stands at 0.70

Observed log10 MIC on E coli NCTC 10418, entry CC1(C)S[C@@H]2[C@H](NC(=O)[C@H](NC(=O)c3cnc(NCc4ccc(Cl)cc4)nc3O)c3ccccc3)C(=O)N2[C@H]1C(=O)O , equals 0.70

Tested system E coli NCTC 10418; log10 MIC recorded for CC1(C)S[C@@H]2[C@H](NC(=O)[C@H](NC(=O)c3cnc(NCCCc4ccccc4)nc3O)c3ccccc3)C(=O)N2[C@H]1C(=O)O was 0.70

// log10 MIC (E coli NCTC 10418) for CC1(C)S[C@@H]2[C@H](NC(=O)[C@H](NC(=O)c3cnc(NCc4ccccc4)nc3O)c3ccc(O)cc3)C(=O)N2[C@H]1C(=O)O [Example 4, disodium salt] = 0.70

Observed log10 MIC on E coli NCTC 10418, entry C=CCNc1ncc(C(=O)N[C@@H](C(=O)N[C@@H]2C(=O)N3[C@@H]2SC(C)(C)[C@@H]3C(=O)O)c2ccccc2)c(O)n1 [Example 21, disodium salt] , equals 0.70

Measured log10 MIC for this entry CC1(C)S[C@@H]2[C@H](NC(=O)[C@H](NC(=O)c3cnc(NC(=O)c4ccccc4)nc3O)c3ccccc3)C(=O)N2[C@H]1C(=O)O [Example 23, disodium salt] on E coli NCTC 10418: 0.70
